meta.source: PubChem BioAssay AID1159580

Recorded measurements of normalized growth, one per entry
assay info: chemical genetic growth profiling, strain panel (AID 1159580);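 also: tested at 20 µM; growth read once vehicle control cultures reached saturation at 30 °C; 1 = growth at the plate median or of vehicle wells; lower values mean less growth of the strain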
setup conditions: S. cerevisiae deletion strains, growth OD, locus YGL167C, strain pmr1, active compounds read low
In all, about 5,500 compounds went through this assay and about 2,000 (36%) were called active. Another 18% or so got no clear call; they are omitted. Some of the results follow.
measured endpoint: normalized growth

>>> measured("Cc1cc2nc3c(=O)[nH]c(=O)nc-3n(CC(O)C(O)C(O)CO)c2cc1C (stereo not drawn)")
0.958
>>> measured("O=C1c2cccc(O)c2C(=O)c2c(O)cccc21")
0.612
>>> measured("COc1cc2c(cc1OC)C(C)NCC2 (stereo not drawn)")
0.969

---

assay info: chemical genetic growth profiling, strain panel (AID 1159580);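 also: tested at 20 µM; growth read once vehicle control cultures reached saturation at 30 °C; 1 = growth at the plate median or of vehicle wells; lower values mean less growth of the strain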
setup conditions: S. cerevisiae deletion strains, growth OD, strain wtn01, active compounds read low
Screen size: about 5,500 compounds; about 2,000 (36%) were called active. About 18% were inconclusive and are not listed. This is one part of the list.
measured endpoint: normalized growth

>>> measured("CCCCCC/C=C\\CCCCCCCc1cccc(O)c1C(=O)O")
"0.995 (inactive)"
>>> measured("C/C(=C\\CO)CC[C@H](C)CCC[C@H](C)CCCC(C)C")
"1.12 [resistant] (active)"
>>> measured("COC(=O)CC1C(C)(C)C(=O)C2CC3(O)C4=CC(=O)OC(c5ccoc5)C4(C)CCC3C1(C)C2=O (stereo not given)")
"0.99 (inactive)"
>>> measured("C=C[C@H]1CN2CC[C@H]1C[C@H]2[C@H](O)c1ccnc2ccccc12")
"0.976 (inactive)"
>>> measured("CC1=C(C(=O)O)N2C(=O)[C@@H](NC(=O)[C@@H](N)c3ccc(O)cc3)[C@H]2SC1")
"0.987 (inactive)"
>>> measured("CCCCN(CC)c1c([N+](=O)[O-])cc(C(F)(F)F)cc1[N+](=O)[O-]")
"1.01 (inactive)"
>>> measured("O=C(CCc1ccc(O)cc1)c1c(O)cc(O)cc1O")
"0.978 (inactive)"
>>> measured("O=C1C(=O)c2ccccc2C(O)=C1C1CCC(c2ccc(Cl)cc2)CC1 (stereo not given)")
"0.998 (inactive)"
>>> measured("CN1CCN(C2=Nc3cc(Cl)ccc3Nc3ccccc32)CC1")
"1 (inactive)"
>>> measured("Cc1c(NC(C)C)c(=O)n(-c2ccccc2)n1C")
"0.971 (inactive)"

---

Entries and their measured normalized growth follow.
assay info: chemical genetic growth profiling, strain panel (AID 1159580);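 also: tested at 20 µM; growth read once vehicle control cultures reached saturation at 30 °C; 1 = growth at the plate median or of vehicle wells; lower values mean less growth of the strain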
setup conditions: S. cerevisiae deletion strains, growth OD, locus YMR058W, strain fet3, active compounds read low
Screen size: about 5,500 compounds; about 2,000 (36%) were called active. Not shown: some 18% with an inconclusive outcome. The list shows a part of the results.
measured endpoint: normalized growth

>>> measured("Cn1c(=O)c2c(ncn2C)n(C)c1=O")
0.96
>>> measured("Cc1cc2nc3c(=O)[nH]c(=O)nc-3n(CC(O)C(O)C(O)CO)c2cc1C (stereo not drawn)")
0.941
>>> measured("CN1CCC[C@H]1c1cccnc1")
1.03
>>> measured("NC(Cc1ccc(Cl)cc1)C(=O)O (stereo not drawn)")
1.02
>>> measured("ClC1C(Cl)C(Cl)C(Cl)C(Cl)C1Cl (stereo not drawn)")
0.846
>>> measured("O=C(O)C1=C(CSc2nnnn2CS(=O)(=O)O)CS[C@@H]2C(NC(=O)[C@H](O)c3ccccc3)C(=O)N12 (stereo partly drawn)")
0.97
>>> measured("C=C[C@H]1CN2CC[C@H]1C[C@H]2[C@H](O)c1ccnc2ccccc12")
0.983
>>> measured("NNCc1ccccc1")
0.996
